Tested on: rat intestine
Test: four-site single-pass perfused rat intestinal model: effective permeability and metabolite formation
Assay type: in vivo
Details: rat intestinal perfusate, LC/MS/MS; loss of saccharide group at C7
Method: Male Sprague-Dawley rats weighing between 250 and 300 g were obtained from the SLEK Lab Animal Center of Shanghai (Shanghai, China). The rats were fed with water and a standard diet. The rats were fasted overnight before the day of the experiment. […] This is a single-pass perfusion method. […] After perfusion, the length of the intestine was measured as described previously The outlet concentrations of the test compounds in the luminal perfusate were determined by HPLC or LC/MS/MS. […]
property: identity of intestinal metabolite

Consider the compound shown here: COc1ccc(-c2oc3c(CC=C(C)C)c(OC4OC(CO)C(O)C(O)C4O)cc(O)c3c(=O)c2OC2OC(C)C(O)C(O)C2OC2OC(C)C(O)C(O)C2O)cc1 (stereo not shown) [epimedin C] What is its recorded identity of intestinal metabolite?
2″-O-rhamnosylicariside II

---

System: rat intestine
Experiment: four-site single-pass perfused rat intestinal model: effective permeability and metabolite formation
Format: in vivo
Conditions: HPLC
property: metabolites detected in the perfusate

COc1ccc(-c2oc3c(CC=C(C)C)c(OC4OC(CO)C(O)C(O)C4O)cc(O)c3c(=O)c2OC2OC(C)C(O)C(O)C2OC2OC(CO)C(O)C(O)C2O)cc1 (centres unmarked) [epimedin A]	one metabolite
COc1ccc(-c2oc3c(CC=C(C)C)c(OC4OC(CO)C(O)C(O)C4O)cc(O)c3c(=O)c2OC2OC(C)C(O)C(O)C2OC2OC(C)C(O)C(O)C2O)cc1 (centres unmarked) [epimedin C]	one metabolite
COc1ccc(-c2oc3c(CC=C(C)C)c(OC4OC(CO)C(O)C(O)C4O)cc(O)c3c(=O)c2OC2OC(C)C(O)C(O)C2OC2OCC(O)C(O)C2O)cc1 (centres unmarked) [epimedin B]	one metabolite

---

System: lactase phlorizin hydrolase
Assay: co-perfusion with LPH inhibitor gluconolactone in perfused rat intestinal model: inhibition of hydrolysis
Assay type: in vivo
Conditions: 10 μM flavonoid co-perfused with gluconolactone (40μM), jejunum
property: hydrolysis inhibition rate, jejunum (%)
Numbers only here, please. The scale is %.

Worked cases, answers included:
COc1ccc(-c2oc3c(CC=C(C)C)c(OC4OC(CO)C(O)C(O)C4O)cc(O)c3c(=O)c2OC2OC(C)C(O)C(O)C2OC2OCC(O)C(O)C2O)cc1 (stereo not shown) [epimedin B]	40
COc1ccc(-c2oc3c(CC=C(C)C)c(OC4OC(CO)C(O)C(O)C4O)cc(O)c3c(=O)c2OC2OC(C)C(O)C(O)C2OC2OC(CO)C(O)C(O)C2O)cc1 (stereo not shown) [epimedin A]	26
COc1ccc(-c2oc3c(CC=C(C)C)c(OC4OC(CO)C(O)C(O)C4O)cc(O)c3c(=O)c2OC2OC(C)C(O)C(O)C2OC2OC(C)C(O)C(O)C2O)cc1 (stereo not shown) [epimedin C]	40

Proceed to the following item.
Give lactase phlorizin hydrolase hydrolysis inhibition rate, jejunum for COc1ccc(-c2oc3c(CC=C(C)C)c(O[C@@H]4O[C@H](CO)[C@@H](O)[C@H](O)[C@H]4O)cc(O)c3c(=O)c2O[C@@H]2O[C@@H](C)[C@H](O)[C@@H](O)[C@H]2O)cc1 [icariin]
50

---

Catalogue of hydrolysis inhibition rate, duodenum values
System: lactase phlorizin hydrolase
Assay: co-perfusion with LPH inhibitor gluconolactone in perfused rat intestinal model: inhibition of hydrolysis
Type: in vivo
Settings: 10 μM flavonoid co-perfused with gluconolactone (40μM), duodenum

Worked cases, answers included:
COc1ccc(-c2oc3c(CC=C(C)C)c(O[C@@H]4O[C@H](CO)[C@@H](O)[C@H](O)[C@H]4O)cc(O)c3c(=O)c2O[C@@H]2O[C@@H](C)[C@H](O)[C@@H](O)[C@H]2O)cc1 [icariin]	62%
COc1ccc(-c2oc3c(CC=C(C)C)c(OC4OC(CO)C(O)C(O)C4O)cc(O)c3c(=O)c2OC2OC(C)C(O)C(O)C2OC2OC(C)C(O)C(O)C2O)cc1 (stereo not shown) [epimedin C]	42%
COc1ccc(-c2oc3c(CC=C(C)C)c(OC4OC(CO)C(O)C(O)C4O)cc(O)c3c(=O)c2OC2OC(C)C(O)C(O)C2OC2OCC(O)C(O)C2O)cc1 (stereo not shown) [epimedin B]	42%

Proceed to the following item.
Consider the compound shown here: COc1ccc(-c2oc3c(CC=C(C)C)c(OC4OC(CO)C(O)C(O)C4O)cc(O)c3c(=O)c2OC2OC(C)C(O)C(O)C2OC2OC(CO)C(O)C(O)C2O)cc1 (stereo not shown) [epimedin A] What is its recorded hydrolysis inhibition rate, duodenum?
55%

Numbers sourced from paper PMC6259646.
